Exercise: state measured pEC50 for each of the compounds provided.
studySystem: Nociceptin receptor (Homo sapiens)
Sequence (P41146 whole entry): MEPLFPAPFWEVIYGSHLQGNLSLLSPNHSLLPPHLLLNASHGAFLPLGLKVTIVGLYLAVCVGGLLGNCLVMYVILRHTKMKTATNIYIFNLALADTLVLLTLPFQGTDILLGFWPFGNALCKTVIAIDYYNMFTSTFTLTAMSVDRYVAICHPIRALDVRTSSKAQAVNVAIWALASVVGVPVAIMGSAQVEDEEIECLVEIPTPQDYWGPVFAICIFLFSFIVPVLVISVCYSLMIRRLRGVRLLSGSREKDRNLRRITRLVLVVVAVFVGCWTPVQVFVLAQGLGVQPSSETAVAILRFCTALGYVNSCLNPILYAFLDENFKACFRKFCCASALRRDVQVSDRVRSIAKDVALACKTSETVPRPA
protocolText: Agonist activity at human NOP receptor expressed in CHO cells assessed as stimulation of calcium mobilization by Fluo-4 AM dye based analysis
Where a SMILES comes first, the peptide text is derived from it. [ ]: non-standard residue; d: D form. Phe(4-NO2) = N[C@@H](Cc1ccc([N+](=O)[O-])cc1)C(=O)O; Phe(4-NH2) = Nc1ccc(C[C@H](N)C(=O)O)cc1; Dmt = Cc1cc(O)cc(C)c1C[C@H](N)C(=O)O; Phg = N[C@H](C(=O)O)c1ccccc1
Give bare numbers, as −log10 of the molar value.

{"columns": ["compound", "pEC50"],
 "data": [
  ["C[C@H](NC(=O)CNC(=O)[C@H](Cc1ccc([N+](=O)[O-])cc1)NC(=O)[C@H](Cc1ccccc1)NC(=O)CNC(=O)CNC(=O)[C@@H](N)Cc1ccc(O)cc1)C(=O)N[C@@H](CCCNC(=N)N)C(=O)N[C@@H](CCCCN)C(=O)N[C@@H](CO)C(=O)N[C@@H](C)C(=O)N[C@@H](CCCNC(=N)N)C(=O)N[C@@H](CCCCN)C(N)=O (H-YGGF[Phe(4-NO2)]GARKSARK-NH2)", 7.31],
  ["Cc1cc(O)cc(C)c1C[C@H](N)C(=O)NCC(=O)NCC(=O)N[C@@H](Cc1ccccc1)C(=O)N[C@H](C(=O)NCC(=O)N[C@@H](C)C(=O)N[C@@H](CCCNC(=N)N)C(=O)N[C@@H](CCCCN)C(=O)N[C@@H](CO)C(=O)N[C@@H](C)C(=O)N[C@@H](CCCNC(=N)N)C(=O)N[C@@H](CCCCN)C(N)=O)c1ccccc1 (H-[Dmt]GGF[Phg]GARKSARK-NH2)", 6.95]
]}

Query: If you can, please state the reported pEC50 value of Cc1cc(O)cc(C)c1C[C@H](N)C(=O)NCC(=O)NCC(=O)N[C@@H](Cc1ccccc1)C(=O)N[C@@H](Cc1ccc(N)cc1)C(=O)NCC(=O)N[C@@H](C)C(=O)N[C@@H](CCCNC(=N)N)C(=O)N[C@@H](CCCCN)C(=O)N[C@@H](CO)C(=O)N[C@@H](C)C(=O)N[C@@H](CCCNC(=N)N)C(=O)N[C@@H](CCCCN)C(N)=O (H-[Dmt]GGF[Phe(4-NH2)]GARKSARK-NH2) .
Result: 7.58
